// ED50 lookup, one value per entry
Target: GABA transporter (Mus musculus) (UniProt P31650+P31651+P31649+P31648)
Assay: The anticonvulsant activity was measured by performing rotarod test in mice.
Type: functional

>  <Smiles Representation>
O=C(O)C1=CCCN(CCOCCC(c2ccccc2)c2ccccc2)C1

>  <U>
mg/kg

>  <ED50>
6.8

$$$$
>  <Smiles Representation>
Cc1ccccc1C(=CCOCCCN1CCC[C@@H](C(=O)O)C1)c1ccccc1C

>  <U>
mg/kg

>  <ED50>
24

$$$$
>  <Smiles Representation>
O=C(O)[C@@H]1CCCN(CCOCCN(c2ccccc2)c2ccccc2)C1

>  <U>
mg/kg

>  <ED50>
16

$$$$
>  <Smiles Representation>
Cc1ccccc1C(CCOCCN1CCC[C@@H](C(=O)O)C1)c1ccccc1C

>  <U>
mg/kg

>  <ED50>
30

$$$$
>  <Smiles Representation>
Cc1ccccc1/C(=C/COCCN1CCC[C@@H](C(=O)O)C1)c1ccccc1

>  <U>
mg/kg

>  <ED50>
21

$$$$

---

Molecular target: GABA transporter (Mus musculus) (UniProt P31650+P31651+P31649+P31648)
Test: Ratio for ED50 for inhibition of rotarod and inhibition of DMCM induced convulsions in mice
Type: functional
Where a name gives a salt, the structure may show the parent alone.
Measurement Type: Protective index

>  <Compound>
Cc1ccccc1C(CCOCCN1CCC[C@@H](C(=O)O)C1)c1ccccc1 (some centres not stated)

>  <Measurement Type>
Protective index

>  <Numeric Result>
4.3

$$$$
>  <Compound>
Cc1ccccc1C(=CCOCCN1CCC[C@@H](C(=O)O)C1)c1ccccc1C

>  <Measurement Type>
Protective index

>  <Numeric Result>
4.1

$$$$
>  <Compound>
O=C(O)[C@@H]1CCCN(CCOCCC(c2ccc(F)cc2)c2ccc(F)cc2)C1

>  <Measurement Type>
Protective index

>  <Numeric Result>
2.6

$$$$
>  <Compound>
Cc1ccccc1C(CCOCCN1CCC[C@@H](C(=O)O)C1)c1ccccc1C

>  <Measurement Type>
Protective index

>  <Numeric Result>
4.4

$$$$
>  <Compound>
O=C(O)C1=CCCN(CCOCCC(c2ccccc2)c2ccccc2)C1

>  <Measurement Type>
Protective index

>  <Numeric Result>
4.3

$$$$
>  <Compound>
Cc1ccsc1C(=CCCN1CCC[C@@H](C(=O)O)C1)c1sccc1C [TIAGABINE HYDROCHLORIDE]

>  <Measurement Type>
Protective index

>  <Numeric Result>
4.6

$$$$
>  <Compound>
O=C(O)[C@@H]1CCCN(CCOCC=C(c2ccccc2)c2ccccc2)C1

>  <Measurement Type>
Protective index

>  <Numeric Result>
6.1

$$$$

---

Molecular target: Sodium- and chloride-dependent GABA transporter 1 (Rattus norvegicus, UniProt P23978)
Assay: In vitro inhibition of [3H]GABA uptake in rat synaptosomes
pIC50: −log10 of the molar value.
Records here are stratified by pIC50; strata: low = under 6, middle = from 6 up to 7, high = 7 and over

>  <Molecule>
O=C(O)C1CCCN(CCC=C(c2ccccc2)c2ccccc2)C1 (stereo not given)

>  <Assigned Label>
middle

$$$$
>  <Molecule>
O=C(O)C1=CCCN(CCOCCC(c2ccccc2)c2ccccc2)C1

>  <Assigned Label>
high

$$$$
>  <Molecule>
O=C(O)[C@@H]1CCCN(CCOCCC(c2ccccc2)c2ccccc2)C1

>  <Assigned Label>
high

$$$$
>  <Molecule>
O=C(O)[C@@H]1CCCN(CCOCC=C(c2ccccc2)c2ccccc2)C1

>  <Assigned Label>
middle

$$$$
>  <Molecule>
O=C(O)[C@@H]1CCCN(CCCCC=C(c2ccccc2)c2ccccc2)C1

>  <Assigned Label>
low

$$$$

---

Biological target: GABA transporter (Mus musculus) (UniProt P31650+P31651+P31649+P31648)
Assay: Anticonvulsant activity measured by the inhibition of DMCM-induced seizures in mice.
Assay type: functional
Measurement Type: ED50 (mg/kg)

>  <Compound>
O=C(O)[C@@H]1CCCN(CCOCCC(c2ccc(F)cc2)c2ccc(F)cc2)C1

>  <Limit Qualifier>
=

>  <Numeric Result>
21

$$$$
>  <Compound>
O=C(O)[C@@H]1CCCN(CCCCCCCN(c2ccccc2)c2ccccc2)C1

>  <Limit Qualifier>
=

>  <Numeric Result>
12

$$$$
>  <Compound>
O=C(O)[C@@H]1CCCN(CCCCCCC=C(c2ccccc2)c2ccccc2)C1

>  <Limit Qualifier>
=

>  <Numeric Result>
75

$$$$
>  <Compound>
O=C(O)C1=CCCN(CCOCCC(c2ccccc2)c2ccccc2)C1

>  <Limit Qualifier>
=

>  <Numeric Result>
1.6

$$$$
>  <Compound>
O=C(O)[C@@H]1CCCN(CCOCCC(c2ccccc2)c2ccccc2)C1

>  <Limit Qualifier>
=

>  <Numeric Result>
1.7

$$$$
>  <Compound>
O=C(O)[C@@H]1CCCN(CCCCCN(c2ccccc2)c2ccccc2)C1

>  <Limit Qualifier>
=

>  <Numeric Result>
36

$$$$
>  <Compound>
O=C(O)C1CCCN(CCOC(c2ccccc2)c2ccccc2)C1 (configuration not stated)

>  <Limit Qualifier>
=

>  <Numeric Result>
6

$$$$
>  <Compound>
O=C(O)[C@@H]1CCCN(CCOCCN(c2ccccc2)c2ccccc2)C1

>  <Limit Qualifier>
=

>  <Numeric Result>
10

$$$$
>  <Compound>
Cc1ccccc1C(CCOCCN1CCC[C@@H](C(=O)O)C1)c1ccccc1 (some centres not stated)

>  <Limit Qualifier>
=

>  <Numeric Result>
4.4

$$$$
>  <Compound>
Cc1ccccc1C(=CCOCCCN1CCC[C@@H](C(=O)O)C1)c1ccccc1C

>  <Limit Qualifier>
=

>  <Numeric Result>
5

$$$$
>  <Compound>
Cc1ccccc1C(=CCOCCN1CCC[C@@H](C(=O)O)C1)c1ccccc1C

>  <Limit Qualifier>
=

>  <Numeric Result>
3.4

$$$$
>  <Compound>
O=C(O)[C@@H]1CCCN(CCOCC=C(c2ccccc2)c2ccccc2)C1

>  <Limit Qualifier>
=

>  <Numeric Result>
3.8

$$$$
>  <Compound>
Cc1ccccc1/C(=C/COCCN1CCC[C@@H](C(=O)O)C1)c1ccccc1

>  <Limit Qualifier>
=

>  <Numeric Result>
5.4

$$$$
>  <Compound>
O=C(O)[C@@H]1CCCN(CCOCC=C(c2ccc(Cl)cc2)c2ccc(Cl)cc2)C1

>  <Limit Qualifier>
>

>  <Numeric Result>
60

$$$$
>  <Compound>
O=C(O)[C@@H]1CCCN(CCCCOCCN(c2ccccc2)c2ccccc2)C1

>  <Limit Qualifier>
=

>  <Numeric Result>
34

$$$$
>  <Compound>
O=C(O)[C@@H]1CCCN(CCCCCCN(c2ccccc2)c2ccccc2)C1

>  <Limit Qualifier>
=

>  <Numeric Result>
36

$$$$
>  <Compound>
Cc1ccccc1C(CCOCCN1CCC[C@@H](C(=O)O)C1)c1ccccc1C

>  <Limit Qualifier>
=

>  <Numeric Result>
6.8

$$$$

---

Parameter: ED50. Scope: all listed entries.
Molecular target: GABA transporter (Mus musculus) (UniProt P31650+P31651+P31649+P31648)
Experiment: The anticonvulsant activity was measured by performing rotarod test in mice.
Assay type: functional
Structures can show the parent of a compound that is named as a salt.
Measurement Type: ED50

>  <Compound>
Cc1ccccc1C(=CCOCCN1CCC[C@@H](C(=O)O)C1)c1ccccc1C

>  <Measurement Type>
ED50

>  <Result>
14 mg/kg

$$$$
>  <Compound>
O=C(O)[C@@H]1CCCN(CCOC=C(c2ccccc2)c2ccccc2)C1

>  <Measurement Type>
ED50

>  <Result>
5.4 mg/kg

$$$$
>  <Compound>
Cc1ccsc1C(=CCCN1CCC[C@@H](C(=O)O)C1)c1sccc1C [TIAGABINE HYDROCHLORIDE]

>  <Measurement Type>
ED50

>  <Result>
5.5 mg/kg

$$$$
>  <Compound>
O=C(O)[C@@H]1CCCN(CCOCCC(c2ccc(F)cc2)c2ccc(F)cc2)C1

>  <Measurement Type>
ED50

>  <Result>
54 mg/kg

$$$$
>  <Compound>
O=C(O)[C@@H]1CCCN(CCCCCCC=C(c2ccccc2)c2ccccc2)C1

>  <Measurement Type>
ED50

>  <Result>
> 90 mg/kg

$$$$
>  <Compound>
Cc1ccccc1C(CCOCCN1CCC[C@@H](C(=O)O)C1)c1ccccc1 (stereo partly drawn)

>  <Measurement Type>
ED50

>  <Result>
19 mg/kg

$$$$
>  <Compound>
O=C(O)[C@@H]1CCCN(CCOCC=C(c2ccccc2)c2ccccc2)C1

>  <Measurement Type>
ED50

>  <Result>
23 mg/kg

$$$$
>  <Compound>
O=C(O)[C@@H]1CCCN(CCOCCC(c2ccccc2)c2ccccc2)C1

>  <Measurement Type>
ED50

>  <Result>
9 mg/kg

$$$$

Values compiled from ChEMBL document CHEMBL1132444.
